# literature pull: Adenylate kinase 2, mitochondrial (Rattus norvegicus, UniProt P29410) pKi
A value of pKi is the negative decimal logarithm of a concentration given in moles per litre.

Checklist item: pKi tested on Adenylate kinase 2, mitochondrial (Rattus norvegicus, UniProt P29410), entry `Nc1ncnc2c1nc(SCCCCO)n2[C@@H]1O[C@H](COP(=O)(O)OP(=O)(O)OP(=O)(O)O)[C@@H](O)[C@H]1O` , value? 3.84

What value of pKi on Adenylate kinase 2, mitochondrial (Rattus norvegicus, UniProt P29410) does `Nc1ncnc2c1nc(Sc1ccccc1)n2[C@@H]1O[C@H](COP(=O)(O)OP(=O)(O)OP(=O)(O)O)[C@@H](O)[C@H]1O` have? 3.49

Report pKi for `CCCCCSc1nc2c(N)ncnc2n1[C@@H]1O[C@H](COP(=O)(O)OP(=O)(O)OP(=O)(O)O)[C@@H](O)[C@H]1O` tested on Adenylate kinase 2, mitochondrial (Rattus norvegicus, UniProt P29410). 4.10

Adenylate kinase 2, mitochondrial (Rattus norvegicus, UniProt P29410) / pKi / `CCSc1nc2c(N)ncnc2n1[C@@H]1O[C@H](COP(=O)(O)OP(=O)(O)OP(=O)(O)O)[C@@H](O)[C@H]1O` : value? 4.10

Lab note: need pKi with Adenylate kinase 2, mitochondrial (Rattus norvegicus, UniProt P29410) for entry `Nc1ncnc2c1nc(NCCCCCCNC(=O)CI)n2[C@@H]1O[C@H](COP(=O)(O)OP(=O)(O)OP(=O)(O)O)[C@@H](O)[C@H]1O` , please look it up. 3.52

Notebook entry, Adenylate kinase 2, mitochondrial (Rattus norvegicus, UniProt P29410) assay: pKi of `CSc1nc2c(N)ncnc2n1[C@@H]1O[C@H](COP(=O)(O)OP(=O)(O)OP(=O)(O)O)[C@@H](O)[C@H]1O` = ? 3.49

Given the entry `CC(=O)N(C)CCCCN(C)c1ncnc2c1ncn2[C@@H]1O[C@H](COP(=O)(O)OP(=O)(O)OP(=O)(O)O)[C@@H](O)[C@H]1O` , what pKi was observed with Adenylate kinase 2, mitochondrial (Rattus norvegicus, UniProt P29410)? 2.96

Give the reported pKi for `CN(CCCCCCN(C)c1ncnc2c1ncn2[C@@H]1O[C@H](COP(=O)(O)OP(=O)(O)OP(=O)(O)O)[C@@H](O)[C@H]1O)C(=O)CCCCCCNC(=O)CI` (system: Adenylate kinase 2, mitochondrial (Rattus norvegicus, UniProt P29410)). 2.74

Give pKi (Adenylate kinase 2, mitochondrial (Rattus norvegicus, UniProt P29410)) of the following compound: `CN(CCCCN(C)c1ncnc2c1ncn2[C@@H]1O[C@H](COP(=O)(O)OP(=O)(O)OP(=O)(O)O)[C@@H](O)[C@H]1O)C(=O)CCCCCCNC(=O)CI` 2.80
